All figures here come from ChEMBL document CHEMBL4808182.

# ASSAY_TEXT: Blood clearance in Wistar rat at 0.3 mg/kg, iv measured up to 24 hrs by LC-MS analysis
# Type: ADME, organism-based
# MEASUREMENT_CONDITIONS: whole blood
READOUT_KIND: clearance (mL/min/kg)
Only the number, expressed in mL/min/kg, is required.

[ask] Kindly indicate its recorded clearance. Item: C[C@H]([C@H](C(=O)Nc1cc([C@@H](CC(=O)O)C2CC2)ccc1Cl)c1ccc(Cl)cc1)C(F)(F)F [RUNCACIGUAT]
[reply] 3.5

* * *

# ASSAY_TEXT: Oral bioavailability in Wistar rat at 0.3 mg/kg measured up to 24 hrs by LC-MS analysis
# Assay type: ADME, organism-based
# MEASUREMENT_CONDITIONS: in vivo
READOUT_KIND: bioavailability (%)
Only the number, expressed in %, is required.

[ask] Kindly indicate its recorded bioavailability. Item: C[C@H]([C@H](C(=O)Nc1cc([C@@H](CC(=O)O)C2CC2)ccc1Cl)c1ccc(Cl)cc1)C(F)(F)F
[reply] 95

* * *

# EXPERIMENTAL_SYSTEM: Guanylate cyclase soluble subunit alpha-1 (Rattus norvegicus)
# ASSAY_TEXT: Activation of recombinant rat sGC alpha1 subunit expressed in CHO cells assessed as induction of [32P-cGMP] formation using alpha-[32P-GTP] as substrate measured after 6 mins by luminescence assay
# Assay type: cell-based
# MEASUREMENT_CONDITIONS: filed as activator
Item-by-item account of MEC
Only the number, expressed in nM, is required.

CN(C(=O)C(c1ccc(CN2N=C(c3ccccc3)OCC2=O)cc1)C1CCCC1)c1cccc(CCC(=O)O)c1 (stereo not given); 10000
CC(C)(Cc1cccc(NC(=O)[C@H](c2ccc(CN3N=C(c4ccccc4)OCC3=O)cc2)C2CCCC2)c1)C(=O)O; 30
Cc1ccc(=O)n(Cc2ccc(C(C(=O)Nc3cccc(CCC(=O)O)c3C)C3CCCC3)cc2)n1 (racemic); 30
C[C@H]([C@H](C(=O)Nc1cccc(CC2(C(=O)O)CC2)c1Cl)c1ccc(Cl)cc1)C(F)(F)F; 100

Turning now to a further compound:
[ask] Kindly indicate its recorded MEC. Item: Cc1c(CCC(=O)O)cccc1NC(=O)[C@H](c1ccc(CN2N=C(c3ccccc3)OCC2=O)cc1)C1CCCC1
[reply] 3

* * *

# ASSAY_TEXT: Clearance in Wistar rat at 0.3 mg/kg, iv measured up to 24 hrs by LC-MS analysis
# Format: ADME, organism-based
# MEASUREMENT_CONDITIONS: in vivo
Item-by-item account of clearance
Only the number, expressed in L/h/kg, is required.

// known answers, use as guide
O=C(NCCCCC1(C(=O)O)CC1)[C@H](c1ccc(CN2N=C(c3ccccc3)OCC2=O)cc1)C1CCCC1; 0.31
Cc1c(CCC(=O)O)cccc1NC(=O)[C@H](c1ccc(Cl)cc1)C1CCCC1; 0.77

[ask] Kindly indicate its recorded clearance. Item: C[C@H]([C@H](C(=O)Nc1cc(C[C@H](C)C(=O)O)ccc1Cl)c1ccc(Cl)cc1)C(F)(F)F
[reply] 0.17

[ask] Kindly indicate its recorded clearance. Item: C[C@H]([C@H](C(=O)Nc1cccc(CCC(=O)O)c1)c1ccc(CN2N=C(c3ccccc3)OCC2=O)cc1)C(F)(F)F
[reply] 1.62

[ask] Kindly indicate its recorded clearance. Item: O=C(Nc1cccc(CC2(C(=O)O)CC2)c1)[C@H](c1ccc(CN2N=C(c3ccccc3)OCC2=O)cc1)C1CCCC1
[reply] 3.3

[ask] Kindly indicate its recorded clearance. Item: O=C(O)CCc1cccc(NC(=O)[C@H](c2ccc(CN3N=C(c4ccccc4)OCC3=O)cc2)C2CCCC2)c1
[reply] 3.85

[ask] Kindly indicate its recorded clearance. Item: C[C@H]([C@H](C(=O)Nc1cc(CC2(C(=O)O)CC2)ccc1Cl)c1ccc(Cl)cc1)C(F)(F)F
[reply] 0.46
